- measured-on: T1, Cre recombinase monomer with E176H mutation
- T1 chain: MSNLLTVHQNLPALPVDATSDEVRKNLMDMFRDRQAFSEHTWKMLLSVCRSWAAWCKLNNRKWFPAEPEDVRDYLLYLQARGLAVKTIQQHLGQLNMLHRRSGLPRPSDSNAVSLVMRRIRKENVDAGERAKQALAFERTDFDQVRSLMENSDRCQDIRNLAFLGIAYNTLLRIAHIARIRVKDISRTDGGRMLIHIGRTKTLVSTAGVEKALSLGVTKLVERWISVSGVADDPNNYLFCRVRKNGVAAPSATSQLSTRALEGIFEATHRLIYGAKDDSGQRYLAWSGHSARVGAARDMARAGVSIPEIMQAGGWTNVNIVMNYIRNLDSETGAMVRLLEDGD
measured-quantity: Median dimer activity (recombination on loxP)

Return Median dimer activity (recombination on loxP) for the following protein: Cre recombinase monomer with R173D mutation (protein) MSNLLTVHQNLPALPVDATSDEVRKNLMDMFRDRQAFSEHTWKMLLSVCRSWAAWCKLNNRKWFPAEPEDVRDYLLYLQARGLAVKTIQQHLGQLNMLHRRSGLPRPSDSNAVSLVMRRIRKENVDAGERAKQALAFERTDFDQVRSLMENSDRCQDIRNLAFLGIAYNTLLDIAEIARIRVKDISRTDGGRMLIHIGRTKTLVSTAGVEKALSLGVTKLVERWISVSGVADDPNNYLFCRVRKNGVAAPSATSQLSTRALEGIFEATHRLIYGAKDDSGQRYLAWSGHSARVGAARDMARAGVSIPEIMQAGGWTNVNIVMNYIRNLDSETGAMVRLLEDGD 29%
